Test system: Saccharomyces cerevisiae
Experiment: protein stability index of tFT-peptide fusion (C-terminal peptide) (PSI (0-1 scale)); higher = more stable (slower turnover)
Details: genetic background: wild type; temperature: 30 C
assay endpoint: protein stability index

Record request: protein stability index value, item `PPPPRSPSLLSP` 0.651

// query protein stability index value for entry `HRARWLSLGVTW` 0.655

###

System: Saccharomyces cerevisiae;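 also: PSI is a weighted mean of sequencing reads over stability bins, variants kept only with over 10 reads, mCherry proximal and sfGFP distal, peptide attached via GGGS linker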
Experiment: protein stability index of tFT-peptide fusion (C-terminal peptide) (PSI (0-1 scale)); higher = more stable (slower turnover)
Settings: genetic background: wild type; temperature: 30 C
assay endpoint: protein stability index
Provide a numeric answer; units are not to be included.

seq_string=MGGYLFLHVGYV recorded_measurement=0.614
seq_string=VGLRPPRPAPPS recorded_measurement=0.623
seq_string=REGGEIGDQEGT recorded_measurement=0.674
seq_string=LRGFGLGLRFFF recorded_measurement=0.65

Suppose we examine the sequence `PLFLHSAHVSPI` ; what protein stability index value has been reported? 0.712

What does the data say about its protein stability index? Entry: `PDTCRYTAFHFH` 0.586

Field request: protein stability index | item: `LLFYSYFFFVLY` 0.265

Query (sequence): `HPFLPLFYHFPF` ; field requested: protein stability index 0.733

For the sequence shown here, `IVFVLRPRRSRC` , give the reported protein stability index. 0.65

Given the entry `WAAGLRVCRSVL` , report its measured protein stability index. 0.704

What value of protein stability index has been reported for the following sequence? `FSHLRASFADAA` 0.687

Looking for the measured protein stability index of `APPPFRAPPGFR` , can you help? 0.845

Quick check: protein stability index of `PHSSSLSPCPSL` ? 0.687

Consider the sequence shown here: `SLDKCDKNNGGE` What is its recorded protein stability index? 0.733

Would you mind telling me what protein stability index value was observed for `KKKKNKQKQIET` ? 0.759

State the recorded protein stability index for this entry: `QTVKNYTSQSKR` 0.666

Quick one: protein stability index of `SNAIPGSHLCRS` ? 0.719

Please report the recorded protein stability index for `FRAPVLCPSYYS` . 0.706

Quick one: protein stability index for `SSSPLPPPSPPP` ? 0.673
